# Study Target: C-Raf kinase (SEQ. ID NO: 3) (Homo sapiens (Human), UniProt P04049, Y340D/Y341D)
# Sequence (P04049 307-648 Y340D/Y341D): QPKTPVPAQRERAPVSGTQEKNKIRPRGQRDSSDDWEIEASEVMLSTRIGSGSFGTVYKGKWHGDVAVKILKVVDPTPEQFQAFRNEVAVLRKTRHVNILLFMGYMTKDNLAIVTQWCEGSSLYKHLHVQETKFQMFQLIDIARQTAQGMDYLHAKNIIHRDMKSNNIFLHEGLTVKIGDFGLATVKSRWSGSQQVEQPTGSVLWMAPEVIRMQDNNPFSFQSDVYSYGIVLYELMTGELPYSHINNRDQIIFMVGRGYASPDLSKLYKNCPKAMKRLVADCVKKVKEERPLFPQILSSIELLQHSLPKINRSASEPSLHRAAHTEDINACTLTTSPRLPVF
# Test: Biochemical Assay for C-Raf (1)
# Assay Conditions: Table J, assay version (1); read-out: CRAF (1) IC50
pIC50: −log10 of the molar value.
Result Type: pIC50

Compound: Cc1ncc(NC(=O)c2ccnc(C(F)(F)F)c2)cc1-c1cccc(-c2ccnc(NC(=O)CN(C)C)c2)c1 [Example 95]
Value Reported: ≥ 7.00
//
Compound: Cc1cc(C(=O)Nc2cnc(C)c(-c3nccc(-c4ccnc(NC(=O)C5CC5)c4)n3)c2)ccn1 [Example 296]
Value Reported: 6.30 to 7.00
//
Compound: CNC(=O)c1cc(-c2ccnc(-c3cc(NC(=O)c4ccnc(C(C)(C)C#N)c4)c(F)cc3C)n2)ccn1 [Example 242]
Value Reported: 6.30 to 7.00
//
Compound: CNC(=O)c1cc(-c2cc(-c3cc(NC(=O)c4ccnc(C5(C#N)CC5)c4)ccc3C)ccn2)ccn1 [Example 265]
Value Reported: ≥ 7.00
//
Compound: CO[C@H]1CC[C@H](C(=O)Nc2ccc(C)c(-c3ccnc(-c4ccnc(NC(=O)C5CC5)c4)n3)c2)CC1 [Example 341]
Value Reported: ≥ 7.00
//
Compound: CC(=O)Nc1cc(-c2ccnc(-c3cc(NC(=O)c4ccnc(C(F)(F)F)c4)ccc3C)n2)ccn1 [Example 92]
Value Reported: ≥ 7.00
//
Compound: COCC(=O)Nc1cc(-c2nccc(-c3cc(NC(=O)c4ccnc(C(F)(F)F)c4)ccc3C)n2)ccn1 [Example 137]
Value Reported: ≥ 7.00

* * *

Measured IC50 of individual entries
# Test system: WM3928 cells
# Test: WM3928 Cell Proliferation Assay (1)
# Assay type: cell-based

Smiles Code: CNC(=O)c1cc(-c2cc(-c3cc(NC(=O)COCC4CC4)ccc3C)ccn2)ccn1
Study Target: WM3928 cells
IC50: 1000 to 10000 nM

Smiles Code: COC(=O)Nc1cc(-c2cccc(-c3cc(NC(=O)c4ccnc(C(C)(C)C#N)c4)cnc3C)c2)ccn1
Study Target: WM3928 cells
IC50: 100 to 500 nM

Smiles Code: Cc1ccc(NC(=O)c2cn(C(C)C)nn2)cc1-c1cncc(-c2cc(NC(=O)C3CC3)ncn2)c1
Study Target: WM3928 cells
IC50: ≤ 100 nM

Smiles Code: Cc1ncc(NC(=O)c2ccnc(C3CC3)c2)cc1-c1cccc(-c2ccnc(NC(=O)C3CC3)c2)n1
Study Target: WM3928 cells
IC50: 100 to 500 nM

Smiles Code: CNC(=O)c1cc(-c2cccc(-c3cc(NC(=O)c4ccnc(C(C)(C)C#N)c4)ccc3C)c2)ncn1
Study Target: WM3928 cells
IC50: ≤ 100 nM

Smiles Code: Cc1ncc(NC(=O)c2ccnc(C3CC3)c2)cc1-c1nccc(-c2ccnc(NC(=O)C3CC3)c2)n1
Study Target: WM3928 cells
IC50: 100 to 500 nM

Smiles Code: CNC(=O)c1cc(-c2cc(-c3cc(NC(=O)c4ccnc(C(F)(F)F)c4)ccc3C)cc(C3CC3)n2)ccn1
Study Target: WM3928 cells
IC50: ≤ 100 nM

Smiles Code: Cc1ncc(NC(=O)c2ccnc(C3CC3)c2)cc1-c1cccc(-c2cc(NC(=O)C3CC3)ncn2)c1
Study Target: WM3928 cells
IC50: ≤ 100 nM

Smiles Code: Cc1ccc(NC(=O)[C@H]2CCO[C@H](C(C)C)C2)cc1-c1cc(-c2ccnc(NC(=O)C3CC3)c2)cnn1
Study Target: WM3928 cells
IC50: 500 to 1000 nM

Smiles Code: CCOc1ncc(-c2cc(NC(=O)c3ccnc(C(F)(F)F)c3)ccc2C)cc1-c1ccnc(C(=O)NC)c1
Study Target: WM3928 cells
IC50: ≤ 100 nM

Smiles Code: CNC(=O)c1cc(-c2nccc(-c3cc(NC(=O)c4ccnc(C(F)(F)F)c4)ccc3C)n2)ccn1
Study Target: WM3928 cells
IC50: 500 to 1000 nM

Smiles Code: Cc1ccc(NC(=O)c2cc(C3CC3)n(C)n2)cc1-c1nccc(-c2ccnc(NC(=O)C3CC3)c2)n1
Study Target: WM3928 cells
IC50: ≤ 100 nM

Smiles Code: CNC(=O)c1cc(-c2ccnc(-c3cc(NC(=O)c4ccnc(C(C)(C)C#N)c4)ccc3C)c2)ccn1
Study Target: WM3928 cells
IC50: 100 to 500 nM

Smiles Code: Cc1ncc(NC(=O)c2ccnc(C(C)(C)C#N)c2)cc1-c1cccc(-c2ncnc3c2CC(=O)N3)c1
Study Target: WM3928 cells
IC50: 500 to 1000 nM

Smiles Code: COC(=O)Nc1cc(-c2cnnc(-c3cc(NC(=O)c4ccnc(C(C)(C)C#N)c4)c(F)cc3C)c2)ccn1
Study Target: WM3928 cells
IC50: 500 to 1000 nM

Smiles Code: Cc1ccc(NC(=O)c2ccnc(C(C)(C)C#N)c2)cc1-c1ccnc(-c2ccnc(N)c2)n1
Study Target: WM3928 cells
IC50: 1000 to 10000 nM

Smiles Code: COC(=O)Nc1cc(-c2cncc(-c3cc(NC(=O)c4ccnc(C(C)(C)F)c4)c(F)cc3C)c2)ccn1
Study Target: WM3928 cells
IC50: ≤ 100 nM

Smiles Code: Cc1ncc(NC(=O)c2ccnc(C(C)(C)C#N)c2)cc1-c1cccc(-c2ccnc(NC(=O)C3CC3)c2)c1
Study Target: WM3928 cells
IC50: ≤ 100 nM

Smiles Code: CC(=O)Nc1cc(-c2cncc(-c3cc(NC(=O)c4ccnc(C(F)(F)F)c4)ccc3C)n2)ccn1
Study Target: WM3928 cells
IC50: ≤ 100 nM

Smiles Code: CNC(=O)c1cc(-c2cc(-c3cc(NC(=O)c4ccnc(C(C)(C)F)c4)ccc3C)nc(C)n2)ccn1
Study Target: WM3928 cells
IC50: 100 to 500 nM

Smiles Code: CNC(=O)c1cc(-c2cnnc(-c3cc(NC(=O)c4ccc(F)c(C(F)(F)F)c4)ccc3C)c2)ccn1
Study Target: WM3928 cells
IC50: 1000 to 10000 nM

Smiles Code: Cc1ccc(NC(=O)c2ccnc(C(C)(C)C#N)c2)cc1-c1cncc(-c2ccnc(NC=O)c2)n1
Study Target: WM3928 cells
IC50: ≤ 100 nM

Smiles Code: Cc1ncc(NC(=O)c2ccnc(C(C)(C)C#N)c2)cc1-c1cccc(-c2cc(NC(=O)C(C)(C)C)ncn2)c1
Study Target: WM3928 cells
IC50: 100 to 500 nM

Smiles Code: CC(=O)Nc1cc(-c2cc(-c3cc(NC(=O)c4ccnc(C(F)(F)F)c4)ccc3C)nc(N(C)C)n2)ccn1
Study Target: WM3928 cells
IC50: ≤ 100 nM

Smiles Code: Cc1ccc(NC(=O)c2ccnc(C(F)F)c2)cc1-c1cncc(-c2ccnc(NC(=O)C3CC3)c2)n1
Study Target: WM3928 cells
IC50: ≤ 100 nM

Smiles Code: COC(=O)Nc1cc(-c2nccc(-c3cc(NC(=O)c4ccnc(C(C)(C)F)c4)c(F)cc3C)n2)ccn1
Study Target: WM3928 cells
IC50: ≤ 100 nM

Smiles Code: CC(=O)Nc1cc(-c2cccc(-c3cc(NC(=O)c4ccnc(C(F)(F)F)c4)ccc3C)c2)ncn1
Study Target: WM3928 cells
IC50: ≤ 100 nM

Smiles Code: COC(=O)Nc1cc(-c2cncc(-c3cc(NC(=O)c4ccnc(C(C)(F)F)c4)ccc3C)c2)ncn1
Study Target: WM3928 cells
IC50: ≤ 100 nM

Smiles Code: Cc1ncc(NC(=O)c2ccnc(C(C)(C)C#N)c2)cc1-c1cc(-c2cc(NC(=O)C3CC3)ncn2)cc(C2CC2)c1
Study Target: WM3928 cells
IC50: ≤ 100 nM

* * *

# Study Target: UniProt:P15056
# Sequence (P15056 416-766): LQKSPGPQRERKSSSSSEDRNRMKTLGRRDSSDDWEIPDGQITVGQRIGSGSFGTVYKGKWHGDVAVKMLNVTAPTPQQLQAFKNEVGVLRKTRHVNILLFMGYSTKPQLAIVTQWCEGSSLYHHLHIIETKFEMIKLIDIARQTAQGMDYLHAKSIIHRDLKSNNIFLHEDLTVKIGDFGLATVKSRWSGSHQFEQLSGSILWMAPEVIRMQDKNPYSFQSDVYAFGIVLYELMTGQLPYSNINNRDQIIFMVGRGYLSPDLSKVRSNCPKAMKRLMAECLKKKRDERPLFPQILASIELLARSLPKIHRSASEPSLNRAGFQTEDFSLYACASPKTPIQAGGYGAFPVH
# Test: Biochemical Assay for B-Raf (1)
# Assay Conditions: Table J, assay version (1); read-out: BRAF (1) IC50
Result Type: IC50

Smiles Code: CNC(=O)c1cc(-c2ccnc(-c3cc(NC(=O)c4ccnc(C(C)(C)F)c4)ccc3C)n2)ccn1
Value Reported: 100 to 500 nM
//
Smiles Code: CNC(=O)c1cc(-c2cc(-c3cc(NC(=O)COCC4CC4)ccc3C)ccn2)ccn1
Value Reported: ≤ 100 nM
//
Smiles Code: CC(=O)Nc1cc(-c2cc(-c3cc(NC(=O)c4ccnc(C(C)(C)C#N)c4)c(F)cc3C)cn(C)c2=O)ccn1
Value Reported: 100 to 500 nM
//
Smiles Code: Cc1cc(F)c(NC(=O)c2ccnc(C(F)(F)F)c2)cc1-c1ccnc(-c2ccnc(NC=O)c2)c1
Value Reported: ≤ 100 nM
//
Smiles Code: CC(=O)Nc1cc(-c2nccc(-c3cc(NC(=O)c4cccc(C(C)(C)C#N)c4)ccc3C)n2)ccn1
Value Reported: ≤ 100 nM
//
Smiles Code: CNC(=O)c1cc(-c2cnnc(-c3cc(NC(=O)c4cnn(C5CC5)c4)cnc3C)c2)ccn1
Value Reported: 1000 to 10000 nM
//
Smiles Code: CCNC(=O)c1cc(-c2cc(-c3cc(NC(=O)c4ccnc(C(C)(C)C#N)c4)ccc3C)ccn2)ccn1
Value Reported: 100 to 500 nM
//
Smiles Code: CNC(=O)c1cc(-c2cnnc(-c3cc(NC(=O)c4ccc(F)c(C(F)(F)F)c4)ccc3C)c2)ccn1
Value Reported: 500 to 1000 nM
//
Smiles Code: CNC(=O)c1cc(-c2cnnc(-c3cc(NC(=O)c4ccnc(C(C)(C)C#N)c4)cnc3C)c2)ccn1
Value Reported: 500 to 1000 nM
//
Smiles Code: CCC(=O)Nc1cc(-c2cccc(-c3cc(NC(=O)c4ccnc(C(C)(C)C#N)c4)cnc3C)n2)ccn1
Value Reported: 100 to 500 nM
//
Smiles Code: Cc1ncc(NC(=O)c2ccnc(C3CC3)c2)cc1-c1cccc(-c2ccnc(NC(=O)C3CC3)c2)n1
Value Reported: ≤ 100 nM
//
Smiles Code: Cc1ccc(NC(=O)c2ccnc(C(F)F)c2)cc1-c1cncc(-c2ccnc(NC(=O)C3CC3)c2)n1
Value Reported: ≤ 100 nM
//
Smiles Code: Cc1cc(F)c(NC(=O)c2ccnc(C(C)(C)C#N)c2)cc1-c1ccnc(-c2ccnc(NC(=O)C3CC3)c2)n1
Value Reported: ≤ 100 nM
//
Smiles Code: Cc1ncc(NC(=O)c2ccnc(C3CC3)c2)cc1-c1cccc(-c2ncnc3[nH]ncc23)c1
Value Reported: ≤ 100 nM
//
Smiles Code: COC(C)(C)c1cc(C(=O)Nc2cnc(C)c(-c3cccc(-c4cc(NC(=O)C5CC5)ncn4)c3)c2)ccn1
Value Reported: ≤ 100 nM
//
Smiles Code: CC(=O)Nc1cc(-c2cc(-c3cc(NC(=O)c4ccnc(C(C)(C)C#N)c4)ccc3C)nc(C)n2)ccn1
Value Reported: 100 to 500 nM
//
Smiles Code: CNC(=O)c1cc(-c2cccc(-c3cc(NC(=O)c4ccnc(C(F)(F)F)c4)ccc3C)c2)ncn1
Value Reported: 100 to 500 nM
//
Smiles Code: Cc1ccc(NC(=O)c2ccnc(C(C)(C)C#N)c2)cc1-c1cccc(-c2cc(NC(=O)C3CC3)ncn2)n1
Value Reported: 100 to 500 nM
//
Smiles Code: Cc1cc(F)c(NC(=O)c2ccnc(C(F)F)c2)cc1-c1ccnc(-c2ccnc(NC(=O)C3CC3)c2)c1
Value Reported: ≤ 100 nM
//
Smiles Code: Cc1ccc(NC(=O)c2ccnc(C(F)(F)F)c2)cc1-c1cncc(-c2ccnc(NC(=O)CC#N)c2)n1
Value Reported: ≤ 100 nM
//
Smiles Code: COC1(C(=O)Nc2cc(-c3cccc(-c4cc(NC(=O)c5ccnc(C(C)(C)C#N)c5)ccc4C)c3)ncn2)CC1
Value Reported: 500 to 1000 nM
//
Smiles Code: CNC(=O)c1cc(-c2cc(-c3cc(C(=O)Nc4ccnc(C(C)(C)C#N)c4)ccc3C)ccn2)ccn1
Value Reported: 500 to 1000 nM
//
Smiles Code: COC(=O)Nc1cc(-c2cnnc(-c3cc(NC(=O)c4cccc(C(C)(C)C#N)c4)ccc3C)c2)ccn1
Value Reported: ≤ 100 nM
//
Smiles Code: CC(=O)Nc1cc(-c2nccc(-c3cc(NC(=O)c4ccnc(C(C)(C)C#N)c4)cnc3C)n2)ccn1
Value Reported: ≤ 100 nM
//
Smiles Code: Cc1ncc(NC(=O)c2ccnc(C3(C#N)CC3)c2)cc1-c1nccc(-c2ccnc(NC(=O)C3CC3)c2)n1
Value Reported: ≤ 100 nM
//
Smiles Code: CNC(=O)c1cc(-c2ccnc(-c3cc(NC(=O)c4ccnc(C(C)(C)C#N)c4)ccc3C)n2)ccn1
Value Reported: 100 to 500 nM
//
Smiles Code: Cc1ccc(NC(=O)c2ccnc(C(F)(F)F)c2)cc1-c1ccnc(-c2ccnc(NC(=O)C3CC3)c2)c1
Value Reported: ≤ 100 nM
//
Smiles Code: COCC(=O)Nc1cc(-c2cccc(-c3cc(NC(=O)c4ccnc(C(F)(F)F)c4)cnc3C)n2)ccn1
Value Reported: ≤ 100 nM
//
Smiles Code: Cc1cc(F)c(NC(=O)c2ccnc(C(F)F)c2)cc1-c1cncc(-c2ccnc(NC(=O)C3CC3)c2)n1
Value Reported: ≤ 100 nM
